Attribution: PubChem BioAssay (NCI)

test: NCI Yeast Anticancer Drug Screen. Data for the cln2 rad14 strain (AID 165); conditions: S. cerevisiae cln2 rad14 strain, at 50.0 µM, active compounds read high
The panel holds about 79,000 compounds, 15% with a hit somewhere; the sample as a whole holds those more often.
Each entry gets Not met if its growth inhibition stays under 40%, and Met if its growth inhibition is 40% or above.

[
  {
    "Compound": "CCCCOC(=O)c1cnc[nH]c1=O",
    "Class": "Not met"
  },
  {
    "Compound": "CCN(CC)CCCC(C)Nc1cc(F)cc2cccnc12 (stereo unspecified)",
    "Class": "Met"
  },
  {
    "Compound": "COc1ccc(C2SC(N)=Nc3c2c(C)nn3C(=O)c2ccccc2O)cc1OC (stereo unspecified)",
    "Class": "Not met"
  },
  {
    "Compound": "O=c1c2cc(Br)ccc2ncn1COCc1ccccc1",
    "Class": "Met"
  },
  {
    "Compound": "CN(C)CCCNCC(=O)Nc1ccc(S(=O)(=O)c2ccc(NC(=O)CNCCCN(C)C)cc2)cc1",
    "Class": "Met"
  }
]
